This collection of values is drawn from PubChem BioAssay AID1919013.

test system: LG0703-F498-PDC complex spheroid growth; test: Anticancer human tumor LG0703-F498-PDC patient-derived lung adenocarcinoma cell line growth inhibition [AhR]; conditions: second compound 0.1 µM; first compound 0.0316 µM; hits give low values
Could you please report measured viability, T/C for the items listed next?

The compound listed as CC1COCCN1c1cc(-c2ccnn2C)c2ccnc(-c3ccn[nH]3)c2n1 (configuration not stated) + CC(CO)NC(=O)c1cc(-c2ccc(Cl)cc2)nn(-c2cnn(C)c2)c1=O shows viability, T/C equal to 93.4%

Recorded result, CC[C@@]1(O)C(=O)OCc2c1cc1n(c2=O)Cc2cc3c(CN(C)C)c(O)ccc3nc2-1 + Cc1ccccc1N=Nc1ccc(NC(=O)c2ccnn2C)c(C)c1 , viability, T/C: 88.5%

So for COc1ccc([C@@H](O)c2cc(-c3ncnc4cc(N5CCOCC5)ccc34)c(F)cc2Cl)nn1 + CC(CO)NC(=O)c1cc(-c2ccc(Cl)cc2)nn(-c2cnn(C)c2)c1=O , the logged viability, T/C turned out to be 88.9%

viability, T/C for O=C(C=Cc1cccc(S(=O)(=O)Nc2ccccc2)c1)NO + Cc1ccccc1N=Nc1ccc(NC(=O)c2ccnn2C)c(C)c1 is 106%

Data point: CC1COCCN1c1cc(C2(S(C)(=N)=O)CC2)nc(-c2ccnc3[nH]ccc23)n1 (configuration not stated) + Cc1ccccc1N=Nc1ccc(NC(=O)c2ccnn2C)c(C)c1 ; viability, T/C = 108%

Short answer for COc1cccc2c1C(=O)c1c(O)c3c(c(O)c1C2=O)CC(O)(C(=O)CO)CC3OC1CC(N)C(O)C(C)O1 (configuration not stated) + Cc1ccccc1N=Nc1ccc(NC(=O)c2ccnn2C)c(C)c1 : viability, T/C was 92.4%

Record summary for O=C(c1cc(Cc2n[nH]c(=O)c3ccccc23)ccc1F)N1CCN(C(=O)C2CC2)CC1 + Cc1ccccc1N=Nc1ccc(NC(=O)c2ccnn2C)c(C)c1 : reported viability, T/C = 89.3%

Sample Cn1ncnc1C1c2n[nH]c(=O)c3cc(F)cc(c23)NC1c1ccc(F)cc1 (configuration not stated) + Cc1ccccc1N=Nc1ccc(NC(=O)c2ccnn2C)c(C)c1 ; viability, T/C observed: 104%

GET /value?item= COc1cc(Nc2ncc3c(n2)-c2ccc(Cl)cc2C(c2c(F)cccc2OC)=NC3)ccc1C(=O)O + Cc1ccccc1N=Nc1ccc(NC(=O)c2ccnn2C)c(C)c1 &field=viability, T/C returns 93.2%

Entry Nc1ncn(C2CC(O)C(CO)O2)c(=O)n1 (configuration not stated) + CC(CO)NC(=O)c1cc(-c2ccc(Cl)cc2)nn(-c2cnn(C)c2)c1=O — recorded viability, T/C = 84.8%

Just so you know, measured viability, T/C for COc1cc(C2c3cc4c(cc3C(OC3OC5COC(C)OC5C(O)C3O)C3COC(=O)C23)OCO4)cc(OC)c1O (configuration not stated) + Cc1ccccc1N=Nc1ccc(NC(=O)c2ccnn2C)c(C)c1 came out at 94.8%

Query CC1(C)CCC(CN2CCN(c3ccc(C(=O)NS(=O)(=O)c4ccc(NCC5CCOCC5)c([N+](=O)[O-])c4)c(Oc4cnc5[nH]ccc5c4)c3)CC2)=C(c2ccc(Cl)cc2)C1 + Cc1ccccc1N=Nc1ccc(NC(=O)c2ccnn2C)c(C)c1 yields viability, T/C of 102%

====

test system: LG0703-F498-PDC complex spheroid growth; assay: Anticancer human tumor LG0703-F498-PDC cell line growth inhibition [AhR]; details: second compound 10 µM; first compound 0.316 µM; active means viability on the fitted dose curve at most 10% of control; inactive means the rest;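 further: luminescence taken as a proxy for viable cell amount; percent of DMSO vehicle control where 100% means growth equal to vehicle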
Classes to choose from: active, inactive

**Query** # fetch the recorded call for NS(=O)(=O)OCC1CC(n2ccc3c(NC4CCc5ccccc54)ncnc32)CC1O (centres undefined) + Cc1ccccc1N=Nc1ccc(NC(=O)c2ccnn2C)c(C)c1 here
**Result** inactive

**Query** What is the recorded call for this molecule in the test? O=C(c1cc(Cc2n[nH]c(=O)c3ccccc23)ccc1F)N1CCN(C(=O)C2CC2)CC1 + CC(CO)NC(=O)c1cc(-c2ccc(Cl)cc2)nn(-c2cnn(C)c2)c1=O
**Result** inactive

**Query** Called result for NS(=O)(=O)OCC1CC(n2ccc3c(NC4CCc5ccccc54)ncnc32)CC1O (centres undefined) + Cc1cncc(-c2nc(NCCc3c[nH]c4ccccc34)c3ncn(C(C)C)c3n2)c1
**Result** active

**Query** Lab log entry: CC(C)c1c(-c2ccccc2)nc2c(C#N)c[nH]n2c1=O + Cc1ccccc1N=Nc1ccc(NC(=O)c2ccnn2C)c(C)c1 — outcome as called in the assay?
**Result** inactive

====

system: LG0703-F498-PDC complex spheroid growth; test: Anticancer human tumor LG0703-F498-PDC cell line growth inhibition [AhR]; conditions: second compound 10 µM; first compound 0.00316 µM; active = viability on the fitted dose curve at most 10% of control; inactive = the rest;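 further: luminescence taken as a proxy for viable cell amount; percent of DMSO vehicle control where 100% means growth equal to vehicle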
Result category, one only: 1 for active, 0 for inactive

**Query** Per the assay record, what outcome was assigned to Nc1ncn(C2CC(O)C(CO)O2)c(=O)n1 (stereo unspecified) + Cc1ccccc1N=Nc1ccc(NC(=O)c2ccnn2C)c(C)c1 ?
**Result** 0

**Query** Hi team, can someone confirm the assay call for Cn1ncnc1C1c2n[nH]c(=O)c3cc(F)cc(c23)NC1c1ccc(F)cc1 (stereo unspecified) + CC(CO)NC(=O)c1cc(-c2ccc(Cl)cc2)nn(-c2cnn(C)c2)c1=O ?
**Result** 0

**Query** State the result this test recorded for CC[C@@]1(O)C(=O)OCc2c1cc1n(c2=O)Cc2cc3c(CN(C)C)c(O)ccc3nc2-1 + CC(CO)NC(=O)c1cc(-c2ccc(Cl)cc2)nn(-c2cnn(C)c2)c1=O .
**Result** 0

**Query** What call does the record list for Nc1ncn(C2CC(O)C(CO)O2)c(=O)n1 (stereo unspecified) + CC(CO)NC(=O)c1cc(-c2ccc(Cl)cc2)nn(-c2cnn(C)c2)c1=O ?
**Result** 0

**Query** Each compound tested received a call. Report the one for Cn1ncnc1C1c2n[nH]c(=O)c3cc(F)cc(c23)NC1c1ccc(F)cc1 (stereo unspecified) + Cc1ccccc1N=Nc1ccc(NC(=O)c2ccnn2C)c(C)c1 .
**Result** 0

**Query** How was CC1COCCN1c1cc(-c2ccnn2C)c2ccnc(-c3ccn[nH]3)c2n1 (stereo unspecified) + Cc1cncc(-c2nc(NCCc3c[nH]c4ccccc34)c3ncn(C(C)C)c3n2)c1 classified in this test?
**Result** 1

====

system: LG0703-F498-PDC complex spheroid growth; experiment: Anticancer human tumor LG0703-F498-PDC cell line growth inhibition [AhR]; conditions: second compound 1 µM; first compound 1 µM; hits give low values;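 further: luminescence taken as a proxy for viable cell amount; percent of DMSO vehicle control where 100% means growth equal to vehicle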
Kindly supply the reported viability, T/C values for the records listed here.
A number alone suffices; assume %.

viability, T/C reported for this molecule CC(C)c1c(-c2ccccc2)nc2c(C#N)c[nH]n2c1=O + Cc1cncc(-c2nc(NCCc3c[nH]c4ccccc34)c3ncn(C(C)C)c3n2)c1 : 91.6

// CC1(C)CCC(CN2CCN(c3ccc(C(=O)NS(=O)(=O)c4ccc(NCC5CCOCC5)c([N+](=O)[O-])c4)c(Oc4cnc5[nH]ccc5c4)c3)CC2)=C(c2ccc(Cl)cc2)C1 + Cc1cncc(-c2nc(NCCc3c[nH]c4ccccc34)c3ncn(C(C)C)c3n2)c1 : viability, T/C value = 103

Record CC1COCCN1c1cc(C2(S(C)(=N)=O)CC2)nc(-c2ccnc3[nH]ccc23)n1 (configuration not stated) + CC(CO)NC(=O)c1cc(-c2ccc(Cl)cc2)nn(-c2cnn(C)c2)c1=O , field viability, T/C: 91

The recorded viability, T/C for entry COc1cccc2c1C(=O)c1c(O)c3c(c(O)c1C2=O)CC(O)(C(=O)CO)CC3OC1CC(N)C(O)C(C)O1 (configuration not stated) + Cc1cncc(-c2nc(NCCc3c[nH]c4ccccc34)c3ncn(C(C)C)c3n2)c1 equals 27.1

According to the records, this molecule CC1COCCN1c1cc(C2(S(C)(=N)=O)CC2)nc(-c2ccnc3[nH]ccc23)n1 (configuration not stated) + Cc1ccccc1N=Nc1ccc(NC(=O)c2ccnn2C)c(C)c1 displays viability, T/C of 96.6

Entry O=C(c1cc(Cc2n[nH]c(=O)c3ccccc23)ccc1F)N1CCN(C(=O)C2CC2)CC1 + Cc1ccccc1N=Nc1ccc(NC(=O)c2ccnn2C)c(C)c1 — recorded viability, T/C = 94.4

Reported viability, T/C ( NS(=O)(=O)OCC1CC(n2ccc3c(NC4CCc5ccccc54)ncnc32)CC1O (configuration not stated) + Cc1ccccc1N=Nc1ccc(NC(=O)c2ccnn2C)c(C)c1 ) = 74.4

# molecule CC1(C)CCC(CN2CCN(c3ccc(C(=O)NS(=O)(=O)c4ccc(NCC5CCOCC5)c([N+](=O)[O-])c4)c(Oc4cnc5[nH]ccc5c4)c3)CC2)=C(c2ccc(Cl)cc2)C1 + CC(CO)NC(=O)c1cc(-c2ccc(Cl)cc2)nn(-c2cnn(C)c2)c1=O ; its viability, T/C = 92.7

Short answer for Nc1ccn(C2OC(CO)C(O)C2(F)F)c(=O)n1 (configuration not stated) + Cc1ccccc1N=Nc1ccc(NC(=O)c2ccnn2C)c(C)c1 : viability, T/C was 31.4

// viability, T/C value for CC(C)c1c(-c2ccccc2)nc2c(C#N)c[nH]n2c1=O + CC(CO)NC(=O)c1cc(-c2ccc(Cl)cc2)nn(-c2cnn(C)c2)c1=O : 87.3

Measured viability, T/C, O=C(C=Cc1cccc(S(=O)(=O)Nc2ccccc2)c1)NO + CC(CO)NC(=O)c1cc(-c2ccc(Cl)cc2)nn(-c2cnn(C)c2)c1=O : 34.6

viability, T/C recorded for this molecule, Nc1ncn(C2CC(O)C(CO)O2)c(=O)n1 (configuration not stated) + CC(CO)NC(=O)c1cc(-c2ccc(Cl)cc2)nn(-c2cnn(C)c2)c1=O , is 77.4
